# protein stability index annotations
B1: DULLARD (parent)
chain: LVVFTASMEIYGSAVADKLDNSRS

# Variants of: B1
# ASSAY OVERVIEW: protein stability index of a GFP-peptide fusion (GPS, HEK-293T) (PSI 1-6); higher = more stable;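 also: lentivirally expressed fusions sorted by FACS into six bins by GFP to DsRed ratio, PSI derived from sequencing read proportions per bin multiplied by bin number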
# EXPERIMENTAL CONDITIONS: c terminus: a fixed tail appended

- MUTATION NOTATION: "G12Q"
  protein stability index: 1.85
- MUTATION NOTATION: "S22A"
  protein stability index: 2.39
- MUTATION NOTATION: "I10F"
  protein stability index: 2.94
- MUTATION NOTATION: "Y11Q"
  protein stability index: 2.07
- MUTATION NOTATION: "L1S"
  protein stability index: 1.94
- MUTATION NOTATION: "S13I"
  protein stability index: 2.46
- MUTATION NOTATION: "D17L"
  protein stability index: 3.58
- MUTATION NOTATION: "V3F"
  protein stability index: 2.15
- MUTATION NOTATION: "A14P"
  protein stability index: 1.73
- MUTATION NOTATION: "V2R"
  protein stability index: 2.25
- MUTATION NOTATION: "L19Q"
  protein stability index: 2.45
- MUTATION NOTATION: "A16R"
  protein stability index: 3.75
- MUTATION NOTATION: "T5N"
  protein stability index: 1.76
- MUTATION NOTATION: "R23T"
  protein stability index: 2.68
- MUTATION NOTATION: "T5D"
  protein stability index: 2.09
- MUTATION NOTATION: "S7H"
  protein stability index: 3.69
- MUTATION NOTATION: "F4D"
  protein stability index: 2.05
- MUTATION NOTATION: "E9N"
  protein stability index: 1.74
- MUTATION NOTATION: "V2N"
  protein stability index: 2.5
- MUTATION NOTATION: "Y11C"
  protein stability index: 2.48
- MUTATION NOTATION: "L1N"
  protein stability index: 2.9
- MUTATION NOTATION: "V3K"
  protein stability index: 2
- MUTATION NOTATION: "F4G"
  protein stability index: 2.24
- MUTATION NOTATION: "R23E"
  protein stability index: 2.94
- MUTATION NOTATION: "A14E"
  protein stability index: 1.04
- MUTATION NOTATION: "L19Y"
  protein stability index: 3.37
- MUTATION NOTATION: "M8A"
  protein stability index: 1.59
- MUTATION NOTATION: "L1T"
  protein stability index: 1.82
- MUTATION NOTATION: "R23F"
  protein stability index: 2.67
- MUTATION NOTATION: "F4E"
  protein stability index: 2.27
- MUTATION NOTATION: "A6K"
  protein stability index: 1.41
- MUTATION NOTATION: "V15H"
  protein stability index: 1.82
- MUTATION NOTATION: "K18N"
  protein stability index: 2.74
- MUTATION NOTATION: "V15S"
  protein stability index: 2.48
- MUTATION NOTATION: "I10Q"
  protein stability index: 1.62
- MUTATION NOTATION: "D17R"
  protein stability index: 2.48
- MUTATION NOTATION: "D20V"
  protein stability index: 2.63
- MUTATION NOTATION: "Y11G"
  protein stability index: 1.97
- MUTATION NOTATION: "V3L"
  protein stability index: 1.71
- MUTATION NOTATION: "D20H"
  protein stability index: 1.99
- MUTATION NOTATION: "L1C"
  protein stability index: 1.94
- MUTATION NOTATION: "N21D"
  protein stability index: 2.47
- MUTATION NOTATION: "K18D"
  protein stability index: 2.94
- MUTATION NOTATION: "S7N"
  protein stability index: 2.14
- MUTATION NOTATION: "M8Q"
  protein stability index: 1.49
- MUTATION NOTATION: "V15G"
  protein stability index: 2.14
- MUTATION NOTATION: "A14D"
  protein stability index: 1.19
- MUTATION NOTATION: "Y11N"
  protein stability index: 3.21
- MUTATION NOTATION: "Y11A"
  protein stability index: 3.03
- MUTATION NOTATION: "M8P"
  protein stability index: 1.18
- MUTATION NOTATION: "L1Y"
  protein stability index: 2.57
- MUTATION NOTATION: "F4Q"
  protein stability index: 2.78
- MUTATION NOTATION: "L19N"
  protein stability index: 1.23
- MUTATION NOTATION: "V2W"
  protein stability index: 3.1
- MUTATION NOTATION: "S22E"
  protein stability index: 4.27
- MUTATION NOTATION: "D20N"
  protein stability index: 1.6
- MUTATION NOTATION: "F4P"
  protein stability index: 3.61
- MUTATION NOTATION: "S24T"
  protein stability index: 2.71
- MUTATION NOTATION: "L1K"
  protein stability index: 2.09
- MUTATION NOTATION: "R23P"
  protein stability index: 2.61
- MUTATION NOTATION: "K18Q"
  protein stability index: 2.49
- MUTATION NOTATION: "K18Y"
  protein stability index: 1.55
- MUTATION NOTATION: "S24E"
  protein stability index: 2.29
- MUTATION NOTATION: "F4S"
  protein stability index: 2.34
- MUTATION NOTATION: "V2H"
  protein stability index: 2.16
- MUTATION NOTATION: "I10Y"
  protein stability index: 1.92
- MUTATION NOTATION: "A6D"
  protein stability index: 1.47
- MUTATION NOTATION: "I10C"
  protein stability index: 1.75
- MUTATION NOTATION: "T5E"
  protein stability index: 2

Source listed as the supplement of paper PMC10567573.
